Test system: U251 CNS
protocolSummary: NCI-60 one-dose screen, 48 h
measurementConditions: 10 µM unless noted
Description: Growth inhibition of the U251 human tumor cell line is measured as a screen for anti-cancer activity. Cells are grown in 96 well plates and exposed to the test compound for 48 hours. Compounds are tested at a single concentration, which is 10^-5 M for most compounds. The reported endpoint is percent growth (GI% or GIPRCNT), where numbers from 0 - 100% represent growth inhibition, and numbers from -100% - 0 represent cell death. For example, a value of 40 represents 60% growth inhibition. […]
About 83,000 compounds went through this panel and 20% of them were active in at least one assay; those are over-represented in the sample as a whole. Calls of active or inactive are those of the source. How the source made its calls: active means growth percent below 10; inactive means the rest.
Labels: T (active), F (inactive)

| compound | assignedCategory |
| --- | --- |
| COC(=O)[C@H](Cc1c[nH]c2ccccc12)NC(=O)[C@@H](OC)[C@@H]1Cc2cc3cc(OC4CC(OC5CC(O)C(O)C(C)O5)C(O)C(C)O4)c(C)c(O)c3c(O)c2C(=O)[C@H]1OC1CC(OC2CC(OC3CC(C)(O)C(O)C(C)O3)C(O)C(C)O2)C(O)C(C)O1 (stereo partly drawn) | T |
| COc1cc(/C=N/C2=C(C#N)C(c3ccco3)c3c(c4cc(C)ccc4oc3=O)O2)cc(OC)c1OC (stereo not drawn) | F |
| NC(=S)c1cn(C2OC(CO)C(O)C2O)c2ncnc(N)c12 (stereo not drawn) | T |
| c1cnc2[nH]cc(-c3csc(-c4cn(CCCCN5CCOCC5)c5ccccc45)n3)c2c1 | F |
| C[C@@]1(CCCCCCCCCc2ccc(O)cc2)C[C@]2(C)OC(=O)C[C@@H]2OO1 | F |
| C[N+](C)(C)Cc1cc(Cl)ccc1O | F |
| CCCCN(CCCC)P(=O)(Oc1ccccc1)Oc1ccccc1 | F |
| CC[C@H](C)[C@H](NC(=O)[C@H]1CCCCN1C)C(=O)N(C)[C@H](C[C@@H](OC(C)=O)c1cccc(C(=O)N[C@@H](Cc2ccccc2)C[C@H](C)C(=O)O)n1)C(C)C | F |

====

Test system: DU-145 prostate
protocolSummary: NCI-60 one-dose screen, 48 h
measurementConditions: 10 µM unless noted
This is part of a sample that, as a whole, favours compounds with a hit. Of some 83,000 tested, about 20% had one in any assay. Calls of active or inactive are those of the source. Rule for the calls: active = growth percent below 10; inactive = the rest.
Labels: 1.0 (active), 0.0 (inactive)

| compound | measurementTarget | assignedCategory |
| --- | --- | --- |
| ClCCN(CCCl)c1ccc(-n2cnc3c(Cl)ncnc32)cc1 | DU-145 prostate | 0.0 |
| CC12CCC(O)CC1=CCC1C2CCC2(C)C(O)CCC12 (stereo unspecified) | DU-145 prostate | 0.0 |
| O=NN1CCCc2cccc(O)c21 | DU-145 prostate | 0.0 |
| C#Cc1ccc2c(c1)C(c1ccccc1)=NCC(=O)N2C | DU-145 prostate | 0.0 |
| COC(=O)[C@H](Cc1ccccc1)NC(=O)c1csc([C@@H](C[C@H](C(C)C)N(C)C(=O)[C@@H](NC(=O)[C@H]2CCCN2C)C2CC2)OC(C)=O)n1 | DU-145 prostate | 1.0 |
| CC[S][Hg][Cl] | DU-145 prostate | 0.0 |
| CN(C)C1C(=O)C(C(N)=O)=C(O)C2(O)C(=O)C3=C(O)c4c(O)cccc4C(C)(O)C3CC12.[Cl][Sb]([Cl])[Cl] (stereo unspecified) | DU-145 prostate | 0.0 |
| C=CC[n+]1ccc(-c2cc[n+](CC=C)cc2)cc1 | DU-145 prostate | 0.0 |
| CCOC(=O)CCN(C)C1=Nc2ccc(Cl)cc2C(c2ccccc2)=[N+]([O-])C1 | DU-145 prostate | 0.0 |
| O=C(c1ccccc1O)c1[nH]c(Cl)c(Cl)c1-n1c(C(=O)c2ccccc2O)cc(Cl)c1Cl | DU-145 prostate | 0.0 |
| CC12CCC3C(CCC4=CC(=O)CCC43CF)C1CCC2=O (stereo unspecified) | DU-145 prostate | 0.0 |

====

growth values by entry
System: T-47D breast
protocolSummary: NCI-60 one-dose screen, 48 h (100 = growth as untreated, 0 = no growth, -100 = all killed)
measurementConditions: 10 µM unless noted
Experimental: Growth inhibition of the T-47D human tumor cell line is measured as a screen for anti-cancer activity. Cells are grown in 96 well plates and exposed to the test compound for 48 hours. Compounds are tested at a single concentration, which is 10^-5 M for most compounds. The reported endpoint is percent growth (GI% or GIPRCNT), where numbers from 0 - 100% represent growth inhibition, and numbers from -100% - 0 represent cell death. For example, a value of 40 represents 60% growth inhibition. […]
About 83,000 compounds went through this panel and 20% of them were active in at least one assay; those are over-represented in the sample as a whole.

| compound | measurementTarget | growth, % |
| --- | --- | --- |
| O=C1CCC2(O)[C@@H]3Cc4ccc(O)c5c4[C@]2(CCN3Cc2ccoc2)C1O5 (stereo not given in full) | T-47D breast | 98.1 |
| CCCC(=O)O[C@@H]1C[C@H]2C[C@@H](O[C@@H]3O[C@@H](C)[C@@H](O)[C@@H](O)[C@H]3OC)C[C@@H](C[C@@H](C)/C=C/C=C\C[C@@H]3O[C@@H](C[C@@H]3C)[C@@H](O)C[C@H]3C[C@@]1(O)C(=O)O3)O2 | T-47D breast | 17.4 |
| CC[C@H](C)[C@H](NC(=O)[C@H]1CCCCN1C)C(=O)N(C)[C@H](C[C@@H](OC(C)=O)c1cccc(C(=O)N[C@@H](Cc2ccccc2)C[C@H](C)C(=O)O)n1)C(C)C | T-47D breast | 66.8 |
| Cn1cc(-c2csc(-c3cn(CCN4CCOCC4)c4ccc(F)cc34)n2)c2cccnc21 | T-47D breast | -17.7 |
| Nc1nc([Se])c2ncn(C3OC(CO)C(O)C3O)c2n1 (stereo not given) | T-47D breast | 93.5 |
| COc1cc2ncnc(Nc3ccc(F)c(Cl)c3)c2cc1OCC(=O)N1CCN(C)CC1 | T-47D breast | 70 |
| COC(=O)CC12CC(NC(=O)c3csc([C@@H](C[C@H](C(C)C)N(C)C(=O)[C@@H](NC(=O)[C@H]4CCCCN4C)C(C)C)OC(C)=O)n3)(C1)C2 | T-47D breast | 64.4 |
| CN1CC(=O)N(O)C1(C)c1cccnc1 (stereo not given) | T-47D breast | 93.4 |
| CC(=O)O[C@H](C[C@H](C(C)C)N(C)C(=O)[C@@H](NC(=O)[C@H]1CCCCN1C)C(C)C)c1cccc(C(=O)N[C@@H](Cc2ccccc2)C[C@H](C)C(=O)O)n1 | T-47D breast | 47.7 |
| COc1ccc(/C=C\c2cc(OC)c(OC)c(OC)c2)cc1NC(=O)/C=C/c1cc(OC)c(OC)c(OC)c1 | T-47D breast | 30 |
| CN1C(=O)C23CC4(C56CC78SSC(CO)(C(=O)N7C5Nc5ccccc56)N(C)C8=O)c5ccccc5NC4N2C(=O)C1(CO)SS3 (stereo not given) | T-47D breast | -92.4 |
| CS(=O)(=O)CCN1CC2CCCC(C2)C1 | T-47D breast | 102 |
| COc1cc([C@@H]2c3cc4c(cc3[C@H](OC(C)=O)[C@H]3COC(=O)[C@@H]23)OCO4)cc(OC)c1OC | T-47D breast | 99.2 |
| COc1ccc(C/C(C)=C(\c2ccc(OCCN3CCOCC3)cc2)c2ccc(OC(=O)Cc3ccccc3)cc2)cc1 | T-47D breast | -48.5 |
| C=C1[C@@H](C)[C@H]2[C@H](Cc3ccccc3)NC(=O)[C@]23[C@@H](O)/C=C/[C@@](C)(O)C(=O)[C@@H](C)C/C=C/[C@H]3[C@@H]1O | T-47D breast | 48.3 |

====

Test system: 786-0 renal
protocolSummary: NCI-60 one-dose screen, 48 h (100 = growth as untreated, 0 = no growth, -100 = all killed)
measurementConditions: 10 µM unless noted
This is part of a sample that, as a whole, favours compounds with a hit. Of some 83,000 tested, about 20% had one in any assay.
growth values by entry
measuredMetric: growth (%)

| molecule | recordedMeasurement |
| --- | --- |
| O=C(CC1(O)C(=O)N(Cc2ccccc2)c2ccc(Cl)cc21)c1ccc(C(=O)NCC2CCC3(CC2)OOC2(CCCCC2)OO3)cc1 (stereo not drawn) | -73.6 |
| CO[C@H](C(=O)O)[C@@H]1Cc2cc3cc(OC4CC(OC5CC(O)C(O)C(C)O5)C(O)C(C)O4)c(C)c(O)c3c(O)c2C(=O)[C@H]1OC1CC(OC2CC(OC3CC(C)(O)C(O)C(C)O3)C(O)C(C)O2)C(O)C(C)O1 (stereo partly drawn) | 10.3 |
| COc1ccc(Nc2ccnc3cc(Cl)ccc23)cc1CN(CCCl)CCCl | -53.3 |
